Hey, just so you know, these numbers are from patent US6653529B2.

- System: transgenic rice Line 29
- Procedure summary: Response of rice plants to various herbicides, seed set in greenhouse
- Format: in vivo
- Test settings: post-emergence, 1× rate, 1× g ai/ha: PURSUIT 62.5, CADRE 32, ARSENAL 24, RAPTOR 32, SCEPTER 125, ACCENT 35, CLASSIC 5, AC322,140 20, LONDAX 68
Assay endpoint: Total No. of kernels/3 panicles

> print(dat)
                                   molecule              test.target  reported.measurement
1  COC(=O)c1ccccc1CS(=O)(=O)NC(=O)Nc1nc(OC)cc(OC)n1  transgenic rice Line 29                   156
2  Cc1cnc(C2=NC(=O)C(C)(C(C)C)N2)c(C(=O)O)c1 (stereo not shown)  transgenic rice Line 29                   175
3  CC(C)C1(C)N=C(c2ncccc2C(=O)O)NC1=O (stereo not shown)  transgenic rice Line 29                   137
4  CC(C)C1(C)N=C(c2nc3ccccc3cc2C(=O)O)NC1=O (stereo not shown)  transgenic rice Line 29                   159
